These measurements were taken from the supplement of paper PMC11451515.

Tested on: SEM cells
Assay: cell viability relative to DMSO control; higher = less cytotoxic
Details: HPLM + 10% dialyzed FBS; 48 h; 15.4 µM
I'd be grateful if you could share measured cell viability for these entries.
Dear colleague, please return just the value in %, with no unit written.

Lookup: For the compound `COc1ccc(-c2oc3cc(OC)ccc3c2C(=O)c2ccc(C#N)cc2)cc1` , what cell viability is on record?
Found: 142

Lookup: Next up: COc1ccc(C2(C#N)CCC(C(=O)O)CC2)cc1OC1CCCC1 (configuration not stated)
Found: 106

Lookup: Also `CC(C)n1cnc2c(NCCc3ccc(O)cc3)nc(-c3csc4ccccc34)nc21` , if possible.
Found: 39.8

Lookup: // next record `Cc1ccc(/C=N/NC(=O)c2ccccc2Oc2ccccc2)o1`
Found: 91.7

Lookup: Moving on to the next compound: `NC[C@H]1O[C@H](O[C@H]2[C@H](O)[C@@H](O[C@H]3O[C@H](CO)[C@@H](O)[C@H](N)[C@H]3O)[C@H](N)C[C@@H]2N)[C@H](N)C[C@@H]1O`
Found: 101

Lookup: Then what about the compound `Oc1ccc2ccccc2c1SSc1c(O)ccc2ccccc12` ?
Found: 97.3

Lookup: Proceed to `Cc1cnc(Nc2ccc(N3CCN(C)CC3)cc2)nc1Nc1cccc([S+](=O)([O-])NC(C)(C)C)c1`
Found: 2.61

Lookup: Cool, now `Oc1ccc([C@@H]2Oc3ccc(O)cc3[C@@H]3CCC[C@@H]32)cc1`
Found: 31.4

Lookup: And what about the compound `Clc1ccc2ncc(-c3cccc(NC4CNC4)n3)n2c1` ?
Found: 67.1

Lookup: Try `Nc1nc(NCCNc2ncc(-n3ccnc3)c(-c3ccc(Cl)cc3Cl)n2)ccc1[N+](=O)[O-]` next.
Found: 121

Lookup: Same read-out for `C[C@]\12CCC(=O)\C=C1[C@@H]3C[C@@H]3[C@@H]4[C@@H]2CC[C@@]5(C)[C@H]4[C@@H]6C[C@@H]6[C@@]57CCC(=O)O7` ?
Found: 107

Lookup: `CC(C)(O)C(=O)Nc1ccc([N+](=O)[O-])c(C(F)(F)F)c1` ?
Found: 123

Lookup: And for `NNc1nncc2ccccc12` ?
Found: 117

Lookup: Another compound to check: `COc1cc2c(Nc3ccc(Cl)c(Cl)c3F)ncnc2cc1OC[C@@H]1C[C@@H]2CN(C)C[C@@H]2C1`
Found: 40

Lookup: Cool, now `CCCCCN(CCC12CC3CC(CC(C3)C1)C2)C(=O)NCCCc1ccncc1`
Found: 102

Lookup: Okay, and `CN1CCN(CCCN2c3ccccc3Sc3ccc(Cl)cc32)CC1.O=C(O)/C=C\C(=O)O.O=C(O)/C=C\C(=O)O` ?
Found: 117

Lookup: Thanks! And `Cc1cnc(Nc2ccc(CN3CCOCC3)cc2)nc1Nc1cccc([S+](=O)([O-])NC(C)(C)C)c1` ?
Found: 2.23

----------
Test system: NOMO1
Assay: cell viability relative to DMSO control; higher = less cytotoxic
Details: RPMI 5 mM glucose + 10% dialyzed FBS; 48 h; 5.12 µM
measured_metric: cell viability
Answer format: number, then unit.

Lookup: Quick one: cell viability of `Nc1nc(N)c(N=O)c(OCC2CCCCC2)n1` ?
Found: 66.8%

Lookup: Follow-up item: C[C@@H](N)C1CC[C@@H](CC1)C(=O)NC2=CC=NC=C2 (stereo partly drawn)
Found: 113%

Lookup: Now consider `CN1CCN(CCCN2c3ccccc3Sc3ccc(Cl)cc32)CC1.O=C(O)/C=C\C(=O)O.O=C(O)/C=C\C(=O)O` and answer again.
Found: 73%

----------
Please respond with reported cell viability for every item in the list.
Tested on: P12-Ichikawa
Test: cell viability relative to DMSO control; higher = less cytotoxic
Conditions: RPMI 5 mM glucose + 10% dialyzed FBS; 48 h; 0.00234 µM
Mention the unit after the number when you answer.

Lookup: Recorded cell viability for `N#CC[C@H](C1CCCC1)n1cc(-c2ncnc3[nH]ccc23)cn1` , please?
Found: 89%

Lookup: How about `Cc1ccc([S+](=O)([O-])Nc2cc(Cl)ccc2C(=O)Nc2nc(-c3ccccc3)cs2)cc1` ?
Found: 130%

Lookup: `CO[C@@H]1[C@@H](O)[C@H](O)[C@@H](n2c3c(Cl)cccc3c3c4c(c5c6cccc(Cl)c6[nH]c5c32)C(=O)NC4=O)O[C@H]1CO` , same question.
Found: 91.4%

Lookup: Queued: NC(CO)C(=O)NNCc1ccc(O)c(O)c1O (stereo not drawn)
Found: 89%

Lookup: Continue with COc1ccc(C2(C#N)CCC(C(=O)O)CC2)cc1OC1CCCC1 (stereo not drawn)
Found: 95.6%

Lookup: For CC(S)C(=O)NCC(=O)O (stereo not drawn) then?
Found: 105%

Lookup: Follow-up item: `CN1CCN(CCCN2c3ccccc3Sc3ccc(Cl)cc32)CC1.O=C(O)/C=C\C(=O)O.O=C(O)/C=C\C(=O)O`
Found: 105%

Lookup: Proceed to `CCOC(=O)O[C@]1(C(=O)OCCl)CC[C@H]2[C@@H]3CCC4=CC(=O)C=C[C@]4(C)[C@H]3[C@@H](O)C[C@@]21C`
Found: 93.3%

Lookup: Try this compound next: `COc1cc2ncn(-c3cc(OCc4ccccc4C(F)(F)F)c(C(N)=O)s3)c2cc1OC`
Found: 111%

Lookup: Same read-out for `CC(C)(O)C(=O)Nc1ccc([N+](=O)[O-])c(C(F)(F)F)c1` ?
Found: 127%

Lookup: And CCN(CC)CCCC(C)Nc1nc(C)cc(Nc2ccc3nc(C)cc(N)c3c2)n1 (stereo not drawn) ?
Found: 113%

Lookup: Next: `CC[C@@H]1C(=O)N(C)c2cnc(Nc3ccc(C(=O)NC4CCN(C)CC4)cc3OC)nc2N1C1CCCC1`
Found: 124%

Lookup: // query: `Cc1cnc(Nc2ccc(CN3CCOCC3)cc2)nc1Nc1cccc([S+](=O)([O-])NC(C)(C)C)c1`
Found: 84.2%

----------
System: SEM cells
Test: cell viability relative to DMSO control; higher = less cytotoxic
Conditions: RPMI 5 mM glucose + 10% FBS; 48 h; 0.0211 µM
measured_metric: cell viability (%)
Please state the figure in %; there is no need to write the unit.

Lookup: Fill in the blank: the reported cell viability of CCOCC(O)COc1ccc(NC(=O)CC[S+](C)C)cc1 (stereo unspecified) is ____.
Found: 80.9

Lookup: Do the same for `C[C@]\12CCC(=O)\C=C1[C@@H]3C[C@@H]3[C@@H]4[C@@H]2CC[C@@]5(C)[C@H]4[C@@H]6C[C@@H]6[C@@]57CCC(=O)O7` please
Found: 117

Lookup: Lookup `CC[C@H]1CN2CCc3cc(OC)c(OC)cc3[C@@H]2C[C@@H]1C[C@H]1NCCc2cc(OC)c(OC)cc21`
Found: 79.9

Lookup: // repeat for CC(S)C(=O)NCC(=O)O (stereo unspecified) and report
Found: 87.8

Lookup: Then this molecule: `NNc1nncc2ccccc12`
Found: 128

Lookup: Then `N#Cc1ccc(NC(=O)Nc2ccccc2Br)c2nn[nH]c12` ?
Found: 91.4

Lookup: # iterate: `Nc1ccc([S+](=O)([O-])Nc2ncccn2)cc1`
Found: 86.1

Lookup: Quick one: `CCOC(=O)N[C@@H]1CC[C@@H]2[C@@H](C1)C[C@H]1C(=O)O[C@H](C)[C@H]1[C@H]2/C=C/c1ccc(-c2cccc(F)c2)cn1`
Found: 107

Lookup: Now the molecule `CO[C@@H]1[C@@H](O)[C@H](O)[C@@H](n2c3c(Cl)cccc3c3c4c(c5c6cccc(Cl)c6[nH]c5c32)C(=O)NC4=O)O[C@H]1CO`
Found: 112

Lookup: Continue with NC(CO)C(=O)NNCc1ccc(O)c(O)c1O (stereo unspecified)
Found: 84.7

Lookup: What do we get for `N=C(N)Nc1ccc(C(=O)Oc2ccc3cc(C(=N)N)ccc3c2)cc1` ?
Found: 83.1

----------
Test system: P12-Ichikawa
Assay: cell viability relative to DMSO control; higher = less cytotoxic
Conditions: HPLM + 10% dialyzed FBS; 48 h; 46.1 µM
measured_metric: cell viability (%)
Reply with just the number (in %).

Lookup: Could you tell me which cell viability is on file for CC(C)[N+]1(C)C2CCC1CC(OC(=O)C(CO)c1ccccc1)C2.O.[Br-] (centres undefined) ?
Found: 7.93

Lookup: Thanks! And `Oc1c(Cl)cc(Cl)c2cccnc12` ?
Found: 70.6

Lookup: Thanks! And `N=C(N)NC(=N)N1CCOCC1` ?
Found: 108

Lookup: Try this compound too: `CC(C)Cn1cnc2c(N)nc3ccccc3c21`
Found: 89.9

Lookup: What about this compound? `Cc1cccc(-c2[nH]c(C(C)(C)C)nc2-c2ccc3c(c2)OCO3)n1`
Found: 11.1

Lookup: Record: `N#Cc1ccc(NC(=O)Nc2ccccc2Br)c2nn[nH]c12`
Found: 79.1

Lookup: Next compound up: `N#CC[C@H](C1CCCC1)n1cc(-c2ncnc3[nH]ccc23)cn1`
Found: 40

Lookup: Moving on to the next compound: `N[C@@H](Cc1ccc(O)c(O)c1)C(=O)O`
Found: 121

Lookup: # iterate: NC(CO)C(=O)NNCc1ccc(O)c(O)c1O (centres undefined)
Found: 54

Lookup: What about this compound? `C=CC(=O)Nc1ccc2ncnc(Nc3ccc(OCc4cccc(F)c4)c(Cl)c3)c2c1`
Found: 10.7

Lookup: Please give the result for `COc1cc(Cl)cn2c(-c3cccc(NC4CNC4)n3)cnc12` too.
Found: 139

Lookup: Follow-up entry: `O=C(NCc1ccccc1)c1csc(Nc2ccncn2)n1`
Found: 1.69

Lookup: Try `Nc1nc(N)c(N=O)c(OCC2CCCCC2)n1` next.
Found: 40.1

Lookup: And then `Cn1cnc([N+](=O)[O-])c1Sc1ncnc2nc[nH]c12` , what is it?
Found: 29.2

Lookup: Please give the result for `COC(=O)[C@H](c1ccccc1Cl)N1CCc2sccc2C1` too.
Found: 12.9

Lookup: Record: `Cc1cnc(Nc2ccc(N3CCN(C)CC3)cc2)nc1Nc1cccc([S+](=O)([O-])NC(C)(C)C)c1`
Found: 2.36

Lookup: Now the compound `Oc1ccc2ccccc2c1SSc1c(O)ccc2ccccc12`
Found: 94.2

Lookup: Another: C[C@@H](N)C1CC[C@@H](CC1)C(=O)NC2=CC=NC=C2 (some centres undefined)
Found: 104

Lookup: Further, for `CC(C)(O)C(=O)Nc1ccc([N+](=O)[O-])c(C(F)(F)F)c1` ?
Found: 11.6

Lookup: Now consider `N#C/C(=C1/Nc2ccccc2S1)c1ccnc(OCc2ccc(CN3CCOCC3)cc2)n1` .
Found: 37.1

Lookup: Next record, please: `NNc1nncc2ccccc12`
Found: 130

Lookup: Follow-up item: `COc1cc(OC)c(C(=O)CCCN2CCCC2)c(OC)c1`
Found: 116

Lookup: What do we get for `CCOC(=O)N[C@@H]1CC[C@@H]2[C@@H](C1)C[C@H]1C(=O)O[C@H](C)[C@H]1[C@H]2/C=C/c1ccc(-c2cccc(F)c2)cn1` ?
Found: 98.5

Lookup: Now consider `CC(C)(C)OC(=O)Nc1ccc(-c2cc(C(=O)NCCCCCCC(=O)NO)no2)cc1` and answer again.
Found: 4.67
